This collection of values is drawn from patent US20200248181.

# Tested on: gluten (wheat allergen)
# measurement.protocol: SPR
# assay.setup: 20-mer poly(dA) added at 5' end for SPR immobilization; 40 mM HEPES pH 7.5, 125 mM NaCl, 5 mM KCl, 1 mM MgCl2, 0.01% Tween 20; aptamer immobilized via poly(dA)/biotin-poly(dT)
Exercise: state measured pKd for each of the sequences provided.
One number for each entry, as −log10 of the molar value.

>  <biosequence>
GAGGTTGGGTGGGGGAGGCAGCATGCGGGA [Aptamer 1]

>  <measured.target>
gluten (wheat allergen)

>  <measured.result>
7.84

$$$$

Now take the following sequence into account.
Input: # lookup: pKd of GAGGTTGGGTGGGGGAGG [Aptamer 2]
Output: 7.73
